Just for reference, ChEMBL document CHEMBL1140802 is where these values come from.

assay: Blockade of CNGA1/CNGB1 expressed in Xenopus oocyte by electrophysiological method
Listing of recorded Kd by entry.
// units = µM; emit number, no label

Below, each entry is followed by its recorded Kd result.
INSERT INTO measurements (molecule, measurement_name, obs_value) VALUES
  ('CCCCNc1ccc(C(=O)OCCCCN(C)C)cc1', 'Kd', 7.1),
  ('CCCCCCCCNc1ccc(C(=O)OCC[N+](C)(C)CC)cc1', 'Kd', 1.6),
  ('CCCCNc1ccc(C(=O)OCCN(CC)CC)cc1 [P-BUTYLAMINOBENZOYLDIETHYLAMINOETHYL]', 'Kd', 8.5),
  ('CCCCNc1ccc(C(=O)OCCCN(CCCC)CCCC)cc1', 'Kd', 1.3),
  ('CCCCNc1ccc(C(=O)OCCCN(CC)CC)cc1', 'Kd', 5.6),
  ('CN(C)CCOC(=O)c1ccc(NCc2ccccc2)cc1', 'Kd', 16);

Task: Record request: Kd value, item CCCCNc1ccc(C(=O)OCCCN(C)C)cc1
Output: 5

Task: What would you report for CC(C)CNc1ccc(C(=O)OCCN(C)C)cc1 ?
Output: 20
